- ASSAY_SYSTEM: Cholinesterase (Equus caballus, UniProt P81908)
- Sequence (P81908 whole entry): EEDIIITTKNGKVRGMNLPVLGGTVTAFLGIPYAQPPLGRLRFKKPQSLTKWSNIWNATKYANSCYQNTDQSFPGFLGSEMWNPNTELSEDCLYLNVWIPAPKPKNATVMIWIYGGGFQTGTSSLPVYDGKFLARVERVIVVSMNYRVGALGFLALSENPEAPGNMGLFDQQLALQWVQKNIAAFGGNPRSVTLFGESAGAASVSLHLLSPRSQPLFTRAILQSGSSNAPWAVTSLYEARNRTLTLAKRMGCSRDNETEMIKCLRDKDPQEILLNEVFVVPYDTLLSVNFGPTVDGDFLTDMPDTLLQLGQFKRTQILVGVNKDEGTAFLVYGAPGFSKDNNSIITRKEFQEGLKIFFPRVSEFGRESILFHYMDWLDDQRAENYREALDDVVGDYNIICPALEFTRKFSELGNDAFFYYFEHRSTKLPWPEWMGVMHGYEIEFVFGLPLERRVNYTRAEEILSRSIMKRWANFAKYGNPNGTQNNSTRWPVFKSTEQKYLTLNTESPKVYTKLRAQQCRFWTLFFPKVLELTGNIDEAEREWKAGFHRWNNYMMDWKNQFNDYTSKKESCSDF
- METHOD_DESCRIPTION: Inhibition of horse serum BChE using butyrylthiocholine iodide as substrate pretreated for 10 mins followed by substrate addition measured after 20 mins by Ellman's method
Overview of reported pIC50 across a group of compounds:
Field pIC50 (float): negative decimal logarithm of the concentration in molar.

The following compounds have reported results that may help.
>>> data_value("CC(=O)OC[C@H]1O[C@@H](Oc2c(-c3cccc4ccccc34)oc3ccccc3c2=O)[C@H](OC(C)=O)[C@@H](OC(C)=O)[C@@H]1OC(C)=O")
4.73
>>> data_value("CC(=O)OC[C@H]1O[C@@H](Oc2c(-c3ccccc3C(=O)O)oc3ccccc3c2=O)[C@H](OC(C)=O)[C@@H](OC(C)=O)[C@@H]1OC(C)=O")
4.31

The compound CC(=O)Nc1ccc(-c2oc3ccccc3c(=O)c2O[C@@H]2O[C@H](COC(C)=O)[C@@H](OC(C)=O)[C@H](OC(C)=O)[C@H]2OC(C)=O)cc1 , when measured on Cholinesterase (Equus caballus, UniProt P81908), yielded pIC50 of 4.40

With Cholinesterase (Equus caballus, UniProt P81908) as the test system, CC(=O)OC[C@H]1O[C@@H](Oc2c(-c3ccc(F)cc3)oc3ccccc3c2=O)[C@H](OC(C)=O)[C@@H](OC(C)=O)[C@@H]1OC(C)=O showed pIC50 of 4.30

---

# pIC50 values compiled below
- ASSAY_SYSTEM: Cholinesterase (Equus caballus, UniProt P81908)
- METHOD_DESCRIPTION: Inhibition of horse serum BChE using butyrylthiocholine iodide as substrate pretreated for 10 mins followed by substrate addition measured after 20 mins by Ellman's method
Reminder that pIC50 is minus the log10 of a molar concentration.

>>> data_value("COc1ccc(-c2oc3ccccc3c(=O)c2O[C@@H]2O[C@H](COC(C)=O)[C@@H](OC(C)=O)[C@H](OC(C)=O)[C@H]2OC(C)=O)cc1")
4.59

Input CC(=O)OC[C@H]1O[C@@H](Oc2c(-c3ccccc3)oc3ccccc3c2=O)[C@H](OC(C)=O)[C@@H](OC(C)=O)[C@@H]1OC(C)=O . Output pIC50: 4.34

// sample CC(=O)OC[C@H]1O[C@@H](Oc2c(-c3ccc(Br)cc3)oc3cc(C)ccc3c2=O)[C@H](OC(C)=O)[C@@H](OC(C)=O)[C@@H]1OC(C)=O , its pIC50 was 4.51

---

Entries below carry reported pIC50 on Acetylcholinesterase (Electrophorus electricus).
Sequence (O42275 whole entry): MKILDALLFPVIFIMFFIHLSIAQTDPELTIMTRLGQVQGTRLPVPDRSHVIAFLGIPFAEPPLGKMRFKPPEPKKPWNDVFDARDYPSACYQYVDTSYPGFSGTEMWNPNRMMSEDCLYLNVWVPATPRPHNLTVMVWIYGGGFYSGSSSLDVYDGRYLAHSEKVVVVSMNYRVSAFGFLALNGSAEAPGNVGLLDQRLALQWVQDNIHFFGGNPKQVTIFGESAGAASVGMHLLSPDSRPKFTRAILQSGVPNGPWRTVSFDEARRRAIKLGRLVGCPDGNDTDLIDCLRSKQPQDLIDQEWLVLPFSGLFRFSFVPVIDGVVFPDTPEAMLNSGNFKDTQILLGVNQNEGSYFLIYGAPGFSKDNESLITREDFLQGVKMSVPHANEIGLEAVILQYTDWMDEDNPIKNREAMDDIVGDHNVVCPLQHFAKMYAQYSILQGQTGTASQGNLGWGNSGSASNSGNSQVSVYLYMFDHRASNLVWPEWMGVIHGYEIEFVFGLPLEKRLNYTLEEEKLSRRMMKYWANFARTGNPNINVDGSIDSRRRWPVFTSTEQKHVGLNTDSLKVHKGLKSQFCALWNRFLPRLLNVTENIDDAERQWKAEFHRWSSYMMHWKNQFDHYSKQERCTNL
Bear in mind: pIC50 is minus log10 of a mol/L concentration; give just that figure.

Sample answers from the record:
>>> data_value("CC(=O)OC[C@H]1O[C@@H](Oc2c(-c3ccc(F)cc3)oc3ccccc3c2=O)[C@H](OC(C)=O)[C@@H](OC(C)=O)[C@@H]1OC(C)=O")
4.53
>>> data_value("CC(=O)OC[C@H]1O[C@@H](Oc2c(-c3cccc4ccccc34)oc3ccccc3c2=O)[C@H](OC(C)=O)[C@@H](OC(C)=O)[C@@H]1OC(C)=O")
4.44
>>> data_value("CC(=O)OC[C@H]1O[C@@H](Oc2c(-c3ccc(Br)cc3)oc3cc(C)ccc3c2=O)[C@H](OC(C)=O)[C@@H](OC(C)=O)[C@@H]1OC(C)=O")
4.65
>>> data_value("CC(=O)OC[C@H]1O[C@@H](Oc2c(-c3ccccc3)oc3ccccc3c2=O)[C@H](OC(C)=O)[C@@H](OC(C)=O)[C@@H]1OC(C)=O")
3.99
>>> data_value("CC(=O)OC[C@H]1O[C@@H](Oc2c(-c3ccccc3C(=O)O)oc3ccccc3c2=O)[C@H](OC(C)=O)[C@@H](OC(C)=O)[C@@H]1OC(C)=O")
4.47

# lookup: CC(=O)OC[C@H]1O[C@@H](Oc2c(-c3cccs3)oc3ccccc3c2=O)[C@H](OC(C)=O)[C@@H](OC(C)=O)[C@@H]1OC(C)=O on Acetylcholinesterase (Electrophorus electricus), pIC50 = 4.73

So the reported pIC50 for CC(=O)OC[C@H]1O[C@@H](Oc2c(-c3ccc(Br)cc3)oc3ccccc3c2=O)[C@H](OC(C)=O)[C@@H](OC(C)=O)[C@@H]1OC(C)=O , on Acetylcholinesterase (Electrophorus electricus), turned out to be 4.99

Let me check: CC(=O)Nc1ccc(-c2oc3ccccc3c(=O)c2O[C@@H]2O[C@H](COC(C)=O)[C@@H](OC(C)=O)[C@H](OC(C)=O)[C@H]2OC(C)=O)cc1 , system Acetylcholinesterase (Electrophorus electricus), measured pIC50 is 4.41

The molecule COc1ccc(-c2oc3ccccc3c(=O)c2O[C@@H]2O[C@H](COC(C)=O)[C@@H](OC(C)=O)[C@H](OC(C)=O)[C@H]2OC(C)=O)cc1 , tested on Acetylcholinesterase (Electrophorus electricus), showed pIC50 of 4.68

Given the molecule CC(=O)OC[C@H]1O[C@@H](Oc2c(-c3ccc(CC(C)C)cc3)oc3ccccc3c2=O)[C@H](OC(C)=O)[C@@H](OC(C)=O)[C@@H]1OC(C)=O and test system Acetylcholinesterase (Electrophorus electricus), the measured pIC50 is 5.69

---

- ASSAY_SYSTEM: Cholinesterase (Equus caballus, UniProt P81908)
- METHOD_DESCRIPTION: Inhibition of horse serum BChE using butyrylthiocholine iodide as substrate pretreated for 10 mins followed by substrate addition measured after 20 mins by Ellman's method
MEASUREMENT_KIND: pIC50
Please report pIC50 as the negative decimal logarithm of the molar concentration, giving only the number.

>>> data_value("CC(=O)OC[C@H]1O[C@@H](Oc2c(-c3ccc(Br)cc3)oc3ccccc3c2=O)[C@H](OC(C)=O)[C@@H](OC(C)=O)[C@@H]1OC(C)=O")
5.51
>>> data_value("CC(=O)OC[C@H]1O[C@@H](Oc2c(-c3cccs3)oc3ccccc3c2=O)[C@H](OC(C)=O)[C@@H](OC(C)=O)[C@@H]1OC(C)=O")
4.59

Alright, here's another molecule for you.
Form field pIC50, entry CC(=O)OC[C@H]1O[C@@H](Oc2c(-c3ccc(CC(C)C)cc3)oc3ccccc3c2=O)[C@H](OC(C)=O)[C@@H](OC(C)=O)[C@@H]1OC(C)=O : 5.27
